study_system: T1, human AMHRII (anti-Mullerian hormone receptor type 2) (human, UniProt Q16671 18-573)
T1 construct: whole, on cells; also called AMHR2; human AMHR2
T1 sequence (looked up): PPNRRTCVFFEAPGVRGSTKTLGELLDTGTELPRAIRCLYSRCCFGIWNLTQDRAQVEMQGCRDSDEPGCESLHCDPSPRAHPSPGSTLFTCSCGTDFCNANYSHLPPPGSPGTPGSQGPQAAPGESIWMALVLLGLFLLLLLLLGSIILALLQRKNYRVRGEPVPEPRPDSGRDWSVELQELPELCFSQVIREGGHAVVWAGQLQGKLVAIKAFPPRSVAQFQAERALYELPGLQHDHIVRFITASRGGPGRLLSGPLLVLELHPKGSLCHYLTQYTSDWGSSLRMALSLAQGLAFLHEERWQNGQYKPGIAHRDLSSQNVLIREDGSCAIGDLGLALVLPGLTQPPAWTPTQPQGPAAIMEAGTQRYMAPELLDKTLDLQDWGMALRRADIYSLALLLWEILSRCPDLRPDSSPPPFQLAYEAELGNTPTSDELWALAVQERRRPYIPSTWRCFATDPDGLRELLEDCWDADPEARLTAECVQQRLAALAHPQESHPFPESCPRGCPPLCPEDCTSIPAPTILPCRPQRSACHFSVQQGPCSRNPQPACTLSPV
assay_name: FACS on CHO-K1 cells over-expressing human AMHR2
metric_name: Top (MFI)
State the answer as a number, implicitly in MFI.

binder	display_unit	Top (MFI)
108F3D1E9 H1L1 hIgG1 (antibody, V domains shown, Humanized, PTM de-risked VH, human IgG1; also called 108F3D1E9 H1L1 hlgG1) VH: QLQLQESGPGLVKPSETLSLTCTVSGYSITSDFAWNWIRQPPGKGLEWIGYISFSGSTSYNPSLKSRVTISVDTSKNQFSLKLSSVTAADTAVYYCARSRYSWFAYWGQGTLVTVSS VL: DIQMTQSPSSLSASVGDRVTITCRASESVDTYGNSFMHWYQQKPGKAPKLLIYRASNLESGVPSRFSGSGSGTDFTLTISSLQPEDFATYYCQQSNEDPYTFGGGTKVEIK	MFI	65400

# next binder below
[in] Find the measured Top (MFI) of 31D9B3 VH1.1-VL2.3 hIgG1 (antibody, V domains shown, Humanized, PTM de-risked, human IgG1; also called 31D9B3 VH1.1-VL2.3 hlgG1) VH: QVQLVQSGAEVKKPGASVKVSCKASGYTFTDYWVSWVRQAPGQGLEWMGEIYPKEGVSNFNEKFKGRVTMTTDTSTSTAYMELRSLRSDDTAVYYCARQRDYWGQGTLVTVSS VL: DVVMTQSPLSLPVTLGQPASISCRSSQSLEYGTGYTYLEWYLQRPGQSPRLLIYGVSNRFSGVPDRFSGSGSGTDFTLKISRVEAEDVGVYYCFQATHDPNTFGQGTKLEIK and report it.
[out] 6580
